test system: M. suipneumoniae NCTC 10110; test: Anti-mycoplasmal in vitro MIC; format: cell-based; conditions: Mesomycoplasma hyopneumoniae, NCTC10110, 144 h, Friis broth solidified with 0.9% agarose, 6 days incubation at 37°C
The following molecules are listed with their measured MIC values.
// note: answer is a bare numeric in µg/mL

molecule | MIC, µg/mL
C/C(=C\C(=O)OCc1cccc(C#N)c1)CC1OCC(C/C=C/C(C)C(C)O)C(O)C1O (stereo not drawn) [Example 5, m-Cyanobenzyl monate C] | 1
C/C(=C\C(=O)OC(C)c1ccc(C#N)cc1)CC1OCC(CC2OC2C(C)C(C)O)C(O)C1O (stereo not drawn) [Example 4, 1-(p-Cyanophenyl)ethyl monate A] | 2.5
C/C(=C\C(=O)OCc1cc(C#N)cc(C#N)c1)CC1OCC(CC2OC2C(C)C(C)O)C(O)C1O (stereo not drawn) [Example 6, 3,5-Dicyanobenzyl monate A] | 0.1
C/C(=C\C(=O)OCc1cccc(C#N)c1)CC1OCC(CC2OC2C(C)C(C)O)C(O)C1O (stereo not drawn) [Example 2, m-Cyanobenzyl monate A] | 0.05
C/C(=C\C(=O)OCc1ccc(C#N)cc1)CC1OCC(CC2OC2C(C)C(C)O)C(O)C1O (stereo not drawn) [Example 3, p-Cyanobenzyl monate A] | 0.25

I'd like to know its MIC. The molecule in question is C/C(=C\C(=O)OCc1ccccc1C#N)CC1OCC(CC2OC2C(C)C(C)O)C(O)C1O (stereo not drawn) [Example 1, o-Cyanobenzyl monate A]
1

* * *

test system: Strep. faecalis I; experiment: Human bacteria MIC; assay type: cell-based; details: Enterococcus faecalis, nutrient agar with 5% chocolated horse blood, 18 hours at 37°C
measurementKind: MIC

Use the examples below as a reference point.
compound | MIC
C/C(=C\C(=O)OCc1cccc(C#N)c1)CC1OCC(C/C=C/C(C)C(C)O)C(O)C1O (stereo not drawn) [Example 5, m-Cyanobenzyl monate C] | > 100 µg/mL
C/C(=C\C(=O)OC(C)c1ccc(C#N)cc1)CC1OCC(CC2OC2C(C)C(C)O)C(O)C1O (stereo not drawn) [Example 4, 1-(p-Cyanophenyl)ethyl monate A] | > 100 µg/mL

Please examine the following record next.
I'd like to know its MIC. The compound in question is C/C(=C\C(=O)OCc1ccccc1C#N)CC1OCC(CC2OC2C(C)C(C)O)C(O)C1O (stereo not drawn) [Example 1, o-Cyanobenzyl monate A]
> 100 µg/mL

* * *

Consider molecules characterized by their MIC with Strep. uberis SPU1.
// note: answer is a bare numeric in µg/mL

Use the examples below as a reference point.
molecule | targetOrTestSystem | outputUnit | MIC
C/C(=C\C(=O)OCc1cccc(C#N)c1)CC1OCC(C/C=C/C(C)C(C)O)C(O)C1O (stereo not shown) [Example 5, m-Cyanobenzyl monate C] | Strep. uberis SPU1 | µg/mL | 0.156
C/C(=C\C(=O)OCc1cccc(C#N)c1)CC1OCC(CC2OC2C(C)C(C)O)C(O)C1O (stereo not shown) [Example 2, m-Cyanobenzyl monate A] | Strep. uberis SPU1 | µg/mL | 0.312
C/C(=C\C(=O)OCc1cc(C#N)cc(C#N)c1)CC1OCC(CC2OC2C(C)C(C)O)C(O)C1O (stereo not shown) [Example 6, 3,5-Dicyanobenzyl monate A] | Strep. uberis SPU1 | µg/mL | 0.312

Please examine the following record next.
I'd like to know its MIC. The molecule in question is C/C(=C\C(=O)OCc1ccc(C#N)cc1)CC1OCC(CC2OC2C(C)C(C)O)C(O)C1O (stereo not shown) [Example 3, p-Cyanobenzyl monate A]
0.07

Entry source: patent EP0052437A1
